The reported measurements were obtained from ChEMBL document CHEMBL3868624.

- Test: Cytotoxicity against human SH-SY5Y cells assessed as cell viability at 50 uM after 48 hrs by MTT assay relative to control
- Type: toxicity, cell-based
- Conditions: read-out: Activity
Classify: 1 (yes) when viability at 48 h, 50 µM is strictly less than 20%; 0 (no) when viability at 48 h, 50 µM is not.

Use these answered entries as a reference point.
1) CN(C)C(=O)Oc1cccc(/C=C/C(=O)c2cccc(O)c2)c1	1 (yes)
2) CCN(C)C(=O)Oc1cccc(/C=C/C(=O)c2ccc(O)cc2)c1	1 (yes)
3) CN(C)C(=O)Oc1cccc(/C=C/C(=O)c2ccc(O)cc2)c1	1 (yes)
4) CCN(C)C(=O)Oc1cccc(/C=C/C(=O)c2cccc(O)c2)c1	1 (yes)
5) CCN(C)C(=O)Oc1ccccc1C(=O)/C=C/c1ccc(O)cc1	0 (no)
6) CCN(C)C(=O)Oc1ccc(/C=C/C(=O)c2ccc(O)cc2)cc1	0 (no)

Req: Check if viability at 48 h, 50 µM falls below 20% for `CN(C)C(=O)Oc1ccc(/C=C/C(=O)c2ccc(O)cc2)cc1` .
Resp: 0 (no)

Req: Answer whether the molecule `CN(C)C(=O)Oc1cccc(C(=O)/C=C/c2ccc(O)cc2)c1` has viability at 48 h, 50 µM strictly less than 20%
Resp: 0 (no)

Req: Determine whether this molecule shows viability at 48 h, 50 µM lower than 20% (ties excluded): `CCN(C)C(=O)Oc1ccc(/C=C/C(=O)c2cccc(O)c2)cc1`
Resp: 1 (yes)

Req: # TODO verify viability at 48 h, 50 µM < 20% strictly for this molecule: `CCN(C)C(=O)Oc1cccc(C(=O)/C=C/c2ccc(O)cc2)c1`
Resp: 1 (yes)

Req: Please check: viability at 48 h, 50 µM for `CCN(C)C(=O)Oc1cccc(C(=O)/C=C/c2ccc(OC)cc2)c1` , strictly under 20% or not?
Resp: 0 (no)

Req: API: query returns whether the molecule falls strictly under 20% in viability at 48 h, 50 µM. Query: `CCN(C)C(=O)Oc1ccc(C(=O)/C=C/c2ccc(OC)cc2)cc1`
Resp: 0 (no)

Req: # strict comparison: is reported viability at 48 h, 50 µM < 20%? input = `CCN(C)C(=O)Oc1cccc([C@H](C)N(C)C)c1`
Resp: 0 (no)
